Provenance of the data: paper PMC6271376

Assay: Pharmacokinetic study in rats following intravenous administration
Type: in vivo
Settings: Sprague-Dawley, rat, plasma, male SD rats, 2.5 mg/kg, mean ± SD, n = 3
Method: Male SD rats weighing from 210 to 240 g were used for the PK study. All animal experiments were performed in accordance with institutional guidelines and were approved by the University Committee on Use and Care of Animals, Shenyang Pharmaceutical University. […] Serial blood samples (0.2 mL) were obtained at 0.08, 0.17, 0.25, 0.5, 0.75, 1, 1.5, 2, 3, 4, 6, 8, 10 and 12 h after intravenous administration. All samples were placed into heparinised tubes. […]
measure: clearance

>>> observed_result("Nc1ncn([C@@H]2O[C@H](CO)[C@@H](O)[C@H]2O)c(=O)n1 [Azacitidine]")
"20.9 mL/min/kg"

---

assay: Pharmacokinetic study in rats following intravenous administration; type: in vivo; settings: Sprague-Dawley, rat, male SD rats, single dose 2.5 mg/kg, plasma, mean ± SD, n = 3, read-out: t1/2β (elimination half-life) (converted)
measure: half-life (min)

>>> observed_result("Nc1ncn([C@@H]2O[C@H](CO)[C@@H](O)[C@H]2O)c(=O)n1")
30.4
